B1: CHMP4C (parent)
chain: SSKSRAAPSPQEALVRLRETEEML

# Variants of: B1
# PROTOCOL_NOTES: protein stability index of a GFP-peptide fusion (GPS, HEK-293T) (PSI 1-6); higher = more stable;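 note: lentivirally expressed fusions sorted by FACS into six bins by GFP to DsRed ratio, PSI derived from sequencing read proportions per bin multiplied by bin number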
# CONDITION_PARAMETERS: c terminus: a fixed tail appended
Record true (1) whenever protein stability index is at 3 or higher; record false (0) when lower.

Worked examples follow.
SSKSRAAPSPQEALVRLRETEMML [E22M]; false (0)
SSKDRAAPSPQEALVRLRETEEML [S4D]; false (0)
SSKSRAAPSPKEALVRLRETEEML [Q11K]; false (0)
SSKSRAAPSPQEALVRLRETEDML [E22D]; false (0)
SSKSRAAPSEQEALVRLRETEEML [P10E]; true (1)

Please look at the following variant next.
Request: Test whether the variant SSKSRAAPSKQEALVRLRETEEML [P10K] records protein stability index of 3 or higher.
Response: true (1)
